assay: Bidirectional permeability assay in Caco-2 cells; settings: human, Caco-2, pH 7.4
Readout Kind: efflux ratio at 2 h, 3 μM
Lab note: record just the number, no unit beside it.

# efflux ratio at 2 h, 3 μM of C[C@H]1O[C@@H](O[C@H]2[C@@H](O)C[C@H](O[C@H]3[C@@H](O)C[C@H](O[C@H]4CC[C@@]5(C)[C@H](CC[C@@H]6[C@@H]5C[C@@H](O)[C@]5(C)[C@@H](C7=CC(=O)OC7)CC[C@]65O)C4)O[C@@H]3C)O[C@@H]2C)C[C@H](O)[C@@H]1O [Digoxin, reference compound] = 14.7

* * *

tested on: Caco-2 cells; details: human, Caco-2, 2 h, 3 μM, pH 7.4
Readout Kind: CACO2 (A-B) (nm/s)
Numbers only here, please. The scale is nm/s.

Example entries begin here.
| Molecule | Study System | Readout Unit | Numeric Value |
| --- | --- | --- | --- |
| [2H]C([2H])([2H])NC(=O)c1nnc(NC(=O)C2CC2)cc1Nc1cc(F)cc(-c2cnn(C3CC3)n2)c1OC [Example 12] | Caco-2 cells | nm/s | 173 |
| [2H]C([2H])([2H])NC(=O)c1nnc(NC(=O)C2CC2)cc1Nc1cccc(-c2cnn(CCF)n2)c1OC [Example 2] | Caco-2 cells | nm/s | 427 |

Summary for this molecule, [2H]C([2H])([2H])NC(=O)c1nnc(NC(=O)C2CC2)cc1Nc1cc(C)cc(-c2cnn(C)n2)c1OC [Example 17] : CACO2 (A-B) is 282

Recorded result, [2H]C([2H])([2H])NC(=O)c1nnc(NC(=O)C2CC2)cc1Nc1ccc(F)c(-c2cnn(C)n2)c1OC [Example 18] , CACO2 (A-B): 654

Note to self: CACO2 (A-B) recorded for [2H]C([2H])([2H])NC(=O)c1nnc(NC(=O)C2CC2)cc1Nc1cccc(-c2cnn(CC(F)F)n2)c1OC [Example 3] was 368

// recorded CACO2 (A-B) for [2H]C([2H])([2H])NC(=O)c1nnc(NC(=O)C2CC2)cc1Nc1cccc(-c2cnn(C([2H])([2H])[2H])n2)c1OC [Example 52] : 482

The reported CACO2 (A-B) of the molecule [2H]C([2H])([2H])NC(=O)c1nnc(NC(=O)C2CC2)cc1Nc1ccc(F)c(-c2cnn(CC)n2)c1OC [Example 10] was 340

Measured values drawn from patent US11866414B2 for this set.
